Molecular target: the molecule itself
Test: cross-linking; Mg2+-loaded proteins: 0.02% glutaric aldehyde, 16 h, 20 °C, protein 1 mg/mL, 20 mM Tricine-KOH pH 7.4, 50 mM KCl, 1 mM DTT, 1 mM MgCl2, 1 mM EGTA; SDS-PAGE, Coomassie, densitometry; self-association
readoutKind: Monomer 20 kDa, % (%)
Answer format: numeric, % implied, no suffix.

Consider the following illustrative entries.
human recoverin mutant V122A (natural protein, UniProt P35243 1-200, looked up, myristoylated (fraction of non-myristoylated forms did not exceed 16%), recoverin, human, UniProt P35243, C-terminal 'gray' cluster mutant; Parent construct as m1; source: E. coli, expressed and purified similarly to the rWT protein (phenyl-Sepharose, Toyopearl SuperQ-650M)) MGNSKSGALSKEILEELQLNTKFSEEELCSWYQSFLKDCPTGRITQQQFQSIYAKFFPDTDPKAYAQHVFRSFDSNLDGTLDFKEYVIALHMTTAGKTNQKLEWAFSLYDVDGNGTISKNEALEIVMAIFKMITPEDVKLLPDDENTPEKRAEKIWKYFGKNDDDKLTEKEFIEGTLANKEILRLIQFEPQKVKEKMKNA :: 64.7
human recoverin mutant W156A (natural protein, UniProt P35243 1-200, looked up, myristoylated (fraction of non-myristoylated forms did not exceed 16%), recoverin, human, UniProt P35243, C-terminal 'gray' cluster mutant; Parent construct as m1; source: E. coli, expressed and purified similarly to the rWT protein (phenyl-Sepharose, Toyopearl SuperQ-650M)) MGNSKSGALSKEILEELQLNTKFSEEELCSWYQSFLKDCPTGRITQQQFQSIYAKFFPDTDPKAYAQHVFRSFDSNLDGTLDFKEYVIALHMTTAGKTNQKLEWAFSLYDVDGNGTISKNEVLEIVMAIFKMITPEDVKLLPDDENTPEKRAEKIAKYFGKNDDDKLTEKEFIEGTLANKEILRLIQFEPQKVKEKMKNA :: 63.2

Could you now look at the following protein, please?
Requested read-out: Monomer 20 kDa, %. Entry: human recoverin mutant F35A (natural protein, UniProt P35243 1-200, looked up, myristoylated (fraction of non-myristoylated forms did not exceed 16%), recoverin, human, UniProt P35243, N-terminal 'black' cluster mutant; Parent construct as m1; source: E. coli, expressed and purified similarly to the rWT protein (phenyl-Sepharose, Toyopearl SuperQ-650M)) MGNSKSGALSKEILEELQLNTKFSEEELCSWYQSALKDCPTGRITQQQFQSIYAKFFPDTDPKAYAQHVFRSFDSNLDGTLDFKEYVIALHMTTAGKTNQKLEWAFSLYDVDGNGTISKNEVLEIVMAIFKMITPEDVKLLPDDENTPEKRAEKIWKYFGKNDDDKLTEKEFIEGTLANKEILRLIQFEPQKVKEKMKNA 69.1
